The entries that follow carry Ki values tested on Beta-secretase 2 (Homo sapiens), drawn from several published reports.
Give bare numbers, in nM.

Each of the following entries comes with a recorded value; kindly state Ki for each.
1. COc1ccc(C(=O)Nc2ccc(F)c([C@]34COC[C@H]3S(=O)(=O)N(C)C(=N)N4)c2)nc1
2. CN1CC2(C1)C(=N)N[C@](C)(c1cc(NC(=O)c3ccc(OC(F)(F)F)cn3)ccc1F)CS2(=O)=O
3. CN1CC2(C1)C(=N)N[C@](C)(c1cc(NC(=O)c3ccc(OCF)cn3)ccc1F)CS2(=O)=O
4. C[C@H]1C[C@H]2C(=O)N(C)C(=N)N[C@@]2(c2cc(Oc3cc(C#N)ccn3)c(F)cc2F)CO1
5. CN1C(=N)N[C@](C)(c2cc(NC(=O)c3ccc(OC(F)F)cn3)ccc2F)C2(CC2)S1(=O)=O

Data returned:
8.2
10.3
1.5
4
46

* * *

The entries that follow carry Ki values tested on Beta-secretase 2 (Homo sapiens, UniProt Q9Y5Z0), drawn from several published reports.

Each of the following entries comes with a recorded value; kindly state Ki for each.
1. C[C@H]1C[C@H]2C(=O)N(C)C(=N)N[C@@]2(c2cc(Oc3cc(F)ccc3F)ccc2F)CO1
2. CCN1C(=N)N[C@](C)(c2cc(NC(=O)c3ccc(Cl)cn3)ccc2F)CS1(=O)=NC (stereo partly shown)
3. Cc1ncc2c(n1)C[C@@](C)(c1sc(-c3cccc(-c4ncno4)c3)cc1Cl)NC2=N
4. CC(C)CC(NC(=O)c1cc(C(=O)NC(C)c2ccccc2)cc(N(C)S(C)(=O)=O)c1)C(O)CC(C)C(=O)NC(C(=O)NCc1ccccn1)C(C)C (stereo not shown)

Data returned:
1. 0.0235 µM
2. 0.003 µM
3. 0.0797 µM
4. < 0.405 µM

Each of the following entries comes with a recorded value; kindly state Ki for each.
1. CC(NC(=O)c1cc(C(=O)NC(Cc2ccccc2)C(O)CNCc2ccccn2)cc(N(C)S(C)(=O)=O)c1)c1ccccc1 (stereo not shown)
2. CN1C(=N)N[C@]2(C)c3cc(NC(=O)c4ncc(Cl)cc4F)ccc3CCC[C@@H]2S1(=O)=O
3. CN1C(=N)N[C@@]2(c3cc(Oc4ccnc(-n5cncn5)c4)ccc3F)CO[C@@H](C3CC3)C[C@H]2C1=O

Data returned:
1. > 0.501 µM
2. 0.005 µM
3. 0.042 µM

* * *

The entries that follow carry Ki values tested on Beta-secretase 2 (Homo sapiens), drawn from several published reports.
Numbers only, in nM.

The cases that follow already have their Ki on record.
moleculeSmiles: COc1ccc(C(=S)Nc2cc(F)c(F)c([C@]3(C)CS(=O)(=O)N(C)C(=N)N3)c2)nc1
unitOfMeasurement: nM
Ki: 15
--
moleculeSmiles: Cc1cnc(Oc2ccc(F)c([C@]34CO[C@@H](C5CC5)C[C@H]3C(=O)N(C)C(=N)N4)c2)c(F)c1
unitOfMeasurement: nM
Ki: 125
--
moleculeSmiles: C[C@@]1(c2cc(-c3cncc(C#N)c3)cs2)Cc2nc(C3CC3)ncc2C(=N)N1
unitOfMeasurement: nM
Ki: 142
--
moleculeSmiles: CN1C(=N)N[C@](C)(c2sc(-c3nnc(-c4cnco4)o3)cc2Cl)CS1(=O)=O
unitOfMeasurement: nM
Ki: 142

Shift focus to the following entry.
Data request: Look at this compound and give its reported Ki. `COc1cc(Br)cnc1C(=O)Nc1ccc2c(c1)[C@@]1(C)NC(=N)N(C)S(=O)(=O)[C@H]1CCC2`
Data returned: 10

* * *

The entries that follow carry Ki values tested on Beta-secretase 2 (Homo sapiens), drawn from several published reports.
Numbers only, in µM.

The cases that follow already have their Ki on record.
moleculeSmiles: CC1(C)C(=N)N[C@@]2(COCc3ccc(NC(=O)c4cn5cc(C#N)ccc5n4)cc32)CS1(=O)=O
systemName: Beta-secretase 2 (Homo sapiens)
Ki / µM: 2.95
//
moleculeSmiles: C[C@H]1C[C@H]2C(=O)N(C)C(=N)N[C@@]2(c2cc(Oc3cc(C#N)ccn3)ccc2F)CO1
systemName: Beta-secretase 2 (Homo sapiens)
Ki / µM: 0.006
//
moleculeSmiles: CC1(C)C(=N)N[C@@]2(CCCc3ccc(NC(=O)c4ccc(F)cn4)cc32)CS1(=O)=O
systemName: Beta-secretase 2 (Homo sapiens)
Ki / µM: 0.007
//
moleculeSmiles: CN1C(=N)N[C@](C)(c2cc(NC(=O)c3ccc(F)cn3)ccc2F)C2(CC2)S1(=O)=O
systemName: Beta-secretase 2 (Homo sapiens)
Ki / µM: 0.008
//
moleculeSmiles: CN1C(=N)N[C@@]2(c3ccc(F)cc3F)CO[C@@H](C(F)F)C[C@H]2C1=O
systemName: Beta-secretase 2 (Homo sapiens)
Ki / µM: 0.254

Each of the following entries comes with a recorded value; kindly state Ki for each.
1. Cc1nc(C(=O)Nc2ccc3c(c2)[C@]2(CCC3)CS(=O)(=O)C(C)(C)C(=N)N2)co1
2. COc1cnc(C(=O)Nc2ccc3c(c2)[C@]2(CCO3)CS(=O)(=O)C(C)(C)C(=N)N2)c(C)c1
3. C[C@@]1(c2cc(NC(=O)c3ccc(Cl)cn3)ccc2F)CS(=O)(=O)C2(CCC2)C(=N)N1
4. COC[C@H]1C[C@H]2C(=O)N(C)C(=N)N[C@@]2(c2ccc(F)cc2F)CO1
5. C=CCCOc1cc([C@]23CO[C@@H](C)C[C@H]2C(=O)N(C)C(=N)N3)c(F)cn1
6. COc1cnc(C(=O)Nc2ccc3c(c2)[C@@]2(C)NC(=N)N(C)S(=O)(=O)[C@H]2CCC3)c(C)c1

Data returned:
[0.003, 0.003, 0.0019, 0.237, 0.00446, 0.034]

Each of the following entries comes with a recorded value; kindly state Ki for each.
1. COc1cncc(-c2ccc(F)c([C@]3(C)Cc4ncncc4C(=N)N3)c2)c1
2. CC1(C)C(=N)N[C@@]2(CCOc3ccc(NC(=O)c4ccc(OCF)cn4)cc32)CS1(=O)=O
3. COc1ccc(F)c([C@]23CO[C@H](C)C[C@H]2S(=O)(=O)C(C)(C)C(=N)N3)c1
4. CN1C(=N)N[C@@]2(c3cc(Oc4ccncc4)ccc3F)CO[C@@H](C3CC3)C[C@H]2C1=O
5. COc1cnc(C(=O)Nc2ccc(F)c([C@@]34COC[C@@H]3S(=O)(=O)N(C)C(=N)N4)c2)cn1
6. CN1CC2(C1)C(=N)N[C@](C)(c1cc(NC(=O)c3ccc(OC(F)F)cn3)ccc1F)CS2(=O)=O

Data returned:
1. 0.0878
2. 0.008
3. 8.4
4. 0.011
5. 1.51
6. 0.0043

Each of the following entries comes with a recorded value; kindly state Ki for each.
1. CC1(C)C(=N)N[C@@]2(CCOc3ccc(NC(=O)c4ccc(Cl)cn4)cc32)CS1(=O)=O
2. COc1ccc(F)c([C@]23CO[C@@H](C)C[C@H]2S(=O)(=O)C(C)(C)C(=N)N3)c1
3. CN1C(=N)N[C@](C)(c2sc(-c3nnc(-c4ccc(C5(C#N)COC5)cc4)o3)cc2Cl)CS1(=O)=O
4. CN1C(=N)N[C@](C)(c2cc(NC(=O)c3cnc(OCC(F)(F)F)cn3)ccc2F)C2(CC2)S1(=O)=O
5. Cc1nc(C(=O)Nc2ccc3c(c2)[C@]2(COC3)CS(=O)(=O)C(C)(C)C(=N)N2)no1

Data returned:
1. 0.002
2. 0.249
3. 1.07
4. 0.159
5. 0.012

* * *

The entries that follow carry Ki values tested on Beta-secretase 2 (Homo sapiens), drawn from several published reports.

molecule: COC[C@@H]1C[C@H]2C(=O)N(C)C(=N)N[C@@]2(c2ccc(F)cc2F)CO1
Ki: 9300 nM

Each of the following entries comes with a recorded value; kindly state Ki for each.
1. Cc1csc(CNCC(O)C(Cc2ccccc2)NC(=O)c2cc(C(=O)NC(C)c3ccccc3)cc(N(C)S(C)(=O)=O)c2)n1 (stereo not drawn)
2. CC(=O)Nc1cccc(CNCC(O)C(Cc2ccccc2)NC(=O)c2cc(C(=O)NC(C)c3ccccc3)cc(N(C)S(C)(=O)=O)c2)c1 (stereo not drawn)
3. CN1C(=N)N[C@](C)(c2cc(-c3nnc(C4Cc5ccccc5C4)o3)ccc2F)CS1(=O)=O
4. C[C@H]1C[C@@H]2[C@](c3cc(Oc4ncccc4F)ccc3F)(CO1)NC(=N)N(C)S2(=O)=O
5. CC(NC(=O)c1cc(C(=O)NC(Cc2ccccc2)C(O)CNCc2cc(F)cc(F)c2)cc(N(C)S(C)(=O)=O)c1)c1ccccc1 (stereo not drawn)
6. COc1cnc2c(Nc3ccc4c(c3)[C@@]3(C)NC(=N)N(C)S(=O)(=O)[C@H]3CCC4)nccc2n1
7. CC1(C)C(=N)N[C@@]2(CCOc3ccc(NC(=O)c4ccc(C(F)(F)F)cn4)cc32)CS1(=O)=O
8. CC1(C)C(=N)N[C@@]2(CCOc3ccc(NC(=O)c4ccc(OC(F)F)cn4)cc32)CS1(=O)=O

Data returned:
> 501 nM
< 300 nM
2680 nM
1.6 nM
> 501 nM
173 nM
50 nM
22 nM

Each of the following entries comes with a recorded value; kindly state Ki for each.
1. COc1cnc(C(=S)Nc2ccc(F)c([C@]3(C)CS(=O)(=O)N(C)C(=N)N3)c2)cn1
2. C[C@@]1(c2cc(NC(=O)c3ccc(C(F)(F)F)cn3)ccc2F)CS(=O)(=O)C2(CCCC2)C(=N)N1
3. CN1C(=N)N[C@](C)(c2sc(-c3ccc(-c4nnc(C5CC5)o4)[nH]3)cc2Cl)CS1(=O)=O
4. CC1(S(C)(=O)=O)CCC(CF)(c2cc(NC(=O)c3ncc4c(c3Cl)OC(F)(F)O4)ccc2F)N=C1N (stereo not drawn)
5. C[C@@]1(c2cc(NC(=O)c3ccc(C#N)cn3)ccc2F)Cc2nccnc2C(=N)N1

Data returned:
4 nM
2.1 nM
11.3 nM
53 nM
207 nM

Each of the following entries comes with a recorded value; kindly state Ki for each.
1. C[C@@]1(c2cc(NC(=O)c3ccc(C#N)cn3)ccc2F)CS(=O)(=O)C2(CCCCC2)C(=N)N1
2. CN1C(=N)N[C@@]2(c3cc(Oc4cccc(C#N)c4)ccc3F)CO[C@@H](C3CC3)C[C@H]2C1=O
3. CC1(C)C(=N)N[C@@]2(COCc3ccc(NC(=O)c4ccc(F)cn4)cc32)CS1(=O)=O

Data returned:
["< 20 nM", "46 nM", "17 nM"]
